Assay: in vitro
Conditions: dog, Cytotoxicity (pCC50) MDCK
VALUE TYPE: CC50

COC(=O)C(c1ccccc1)N1CCN(C(=O)c2cccc(-c3nc4cc(Cl)ccc4o3)c2)CC1 (stereo not drawn): > 50.1 µM
COC(=O)[C@H](c1ccccc1)N1CCN(C(=O)c2cccc(-c3nc4cc(OC)ccc4o3)c2)CC1: > 50.1 µM
COC(=O)C(c1ccccc1)C1CCN(C(=O)c2cccc(-c3nc4ccc(OC)cc4[nH]3)c2)CC1 (stereo not drawn): > 50.1 µM

----------
Test system: H1N1 A/New Caledonia/20/99
Assay: microbe, parasite or virus in culture
Format: cell-based, influenza A virus
Conditions: Influenza A virus, H1N1, MDCK, 96 h, read-out: Virus neutralization assay (VNA), pEC50 H1N1 A/New Caledonia/20/99 (converted)
Each entry belongs to exactly one class, chosen by where its EC50 falls: Low = under 300 nM, Mid = from 300 nM up to 600 nM, High = 600 nM and over

CCOC(=O)[C@@H](c1ccccc1)N1CCN(C(=O)c2cccc(-c3ccc(OC)cc3)c2)CC1: High
COc1ccc2nc(-c3cccc(C(=O)N4CCN(C(c5ccccc5)c5nnc(C)o5)CC4)c3)sc2c1 (stereo not shown): High
Cc1nc([C@@H](c2ccccc2)N2CCN(C(=O)c3cc(-c4nc5cc(OC(F)(F)F)ccc5o4)ccn3)CC2)n[nH]1: Low
COC(=O)C(c1ccccc1)N1CCN(C(=O)c2cccc(-c3ncc(C(=O)N4CCOCC4)s3)c2)CC1 (stereo not shown): High
Cc1nnc([C@@H](c2ccccc2)N2CCN(C(=O)c3cc(-c4nc5cc(C(F)(F)F)ccc5o4)ccn3)CC2)o1: Low
CC(=O)Nc1ccc2oc(-c3cccc(C(=O)N4CCN(C(c5ccccc5)c5n[nH]c(C)n5)CC4)c3)nc2c1 (stereo not shown): Low
Cc1nnc(C(c2ccccc2)N2CCN(C(=O)[C@H]3CCCN(c4nc5cc(C(F)(F)F)ccc5o4)C3)CC2)o1 (stereo partly shown): High
CCOC(=O)C(c1ccccc1)N1CCN(C(=O)c2cccc(-c3ccc(OC)cc3)c2)CC1 (stereo not shown): High
COc1ccc2nc(-c3cccc(C(=O)N4CCN(C(C(=O)NCCCN)c5ccccc5)CC4)c3)sc2c1 (stereo not shown): Mid
COC(=O)C(c1ccccc1)N1CCN(C(=O)c2cc(-c3nc4cc(C(F)(F)F)ccc4o3)ccn2)CC1 (stereo not shown): Low
CC(=O)Nc1ccc2oc(-c3ccnc(C(=O)N4CCN([C@H](c5ccccc5)c5nnc(C)o5)CC4)c3)nc2c1: Low
NCc1nnc(C(c2ccccc2)N2CCN(C(=O)c3cccc(-c4nc5cc(C(F)(F)F)ccc5o4)c3)CC2)o1 (stereo not shown): High
COC(=O)[C@@H](c1ccccc1)C1CCN(C(=O)c2cccc(-c3nc4ccc(OC)cc4s3)c2)CC1: Mid
